Where do the numbers come from? From paper PMC6747088.

System: NOD1 (Homo sapiens)
Construct: THP-1 cells also express high levels of native functional NOD1 and NOD2 and respond to NOD stimulation by IL-8 secretion; endogenous in cells
Sequence (Q9Y239 1-953): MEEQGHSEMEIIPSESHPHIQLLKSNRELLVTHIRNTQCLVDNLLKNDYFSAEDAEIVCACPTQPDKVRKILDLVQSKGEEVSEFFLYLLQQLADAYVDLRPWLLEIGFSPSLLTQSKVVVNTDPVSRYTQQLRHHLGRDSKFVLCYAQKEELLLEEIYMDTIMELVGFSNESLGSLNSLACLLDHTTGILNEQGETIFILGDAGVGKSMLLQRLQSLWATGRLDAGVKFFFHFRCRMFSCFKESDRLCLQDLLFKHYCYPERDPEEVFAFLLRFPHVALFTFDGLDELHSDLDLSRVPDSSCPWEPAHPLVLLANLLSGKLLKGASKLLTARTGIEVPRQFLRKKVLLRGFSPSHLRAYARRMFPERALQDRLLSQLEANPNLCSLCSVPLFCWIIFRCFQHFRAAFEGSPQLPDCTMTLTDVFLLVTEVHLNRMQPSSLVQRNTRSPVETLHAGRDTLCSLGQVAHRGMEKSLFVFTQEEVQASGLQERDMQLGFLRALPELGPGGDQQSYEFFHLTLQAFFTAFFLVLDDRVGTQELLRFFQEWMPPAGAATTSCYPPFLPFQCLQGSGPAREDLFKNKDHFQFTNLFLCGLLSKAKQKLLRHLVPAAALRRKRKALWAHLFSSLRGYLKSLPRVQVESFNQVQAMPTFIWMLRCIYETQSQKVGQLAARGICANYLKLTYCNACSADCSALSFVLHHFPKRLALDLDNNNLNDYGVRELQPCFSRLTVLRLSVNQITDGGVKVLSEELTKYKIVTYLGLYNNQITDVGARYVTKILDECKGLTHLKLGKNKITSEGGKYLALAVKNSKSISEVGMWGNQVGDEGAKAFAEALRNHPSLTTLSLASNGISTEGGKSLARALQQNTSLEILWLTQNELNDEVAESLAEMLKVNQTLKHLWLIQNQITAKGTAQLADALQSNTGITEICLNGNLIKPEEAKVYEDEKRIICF
Measurement Description: C12-iE-DAP (NOD1 agonist)-induced IL-8 secretion from THP-1 cells
Condition Parameters: 1 h pretreatment, C12-iE-DAP 10 µM, 20 h, read-out: IC50 (NOD1), inhibition of IL-8 release
Experimental Endpoint: IC50 (µM)

P. CCOC(=O)c1cc2ccccc2n1S(=O)(=O)c1ccc(C)cc1 [SZA-39]
Q. C/C=C/Cn1c(=O)c2[nH]c(SCCCc3ccccc3)nc2n(C)c1=O [ML146]
Query :: Smaller IC50 value, P vs Q ? Mark your answer with the label of the selected entry.
Result :: Q
(Q: 10.5 µM, P: 27.5 µM)
